Test system: KB
procedureText: Cytotoxicity against human KB cells
Type: functional, cell-based
reportedProperty: IC50

Incoming: Suppose we examine the compound C=C(C)[C@@H]1C[C@@H](CC2(CC=C(C)C)C(=O)C(C(CC(=O)O)c3ccccc3)=C3O[C@@H](C)[C@@H](C)C(=O)C3=C2O)C1(C)C (relative stereo) ; what IC50 value has been reported?
Outgoing: > 20 µg/mL

Incoming: Suppose we examine the compound COc1cc([C@@H]2c3cc4c(cc3[C@H](O)[C@H]3COC(=O)[C@H]23)OCO4)cc(OC)c1OC ; what IC50 value has been reported?
Outgoing: 0.005 µg/mL

Incoming: Suppose we examine the compound C=C(C)[C@@H]1C[C@@H](CC2(CC=C(C)C)C(=O)C3=C(O)[C@@H](C)[C@H](C)OC3=C(C(CC(=O)O)c3ccccc3)C2=O)C1(C)C (relative stereo) ; what IC50 value has been reported?
Outgoing: > 20 µg/mL

Incoming: Suppose we examine the compound C=C(C)[C@@H]1C[C@@H](CC2(CC=C(C)C)C(=O)C3=C(O)[C@@H](C)[C@@H](C)OC3=C(C(CC(=O)O)c3ccccc3)C2=O)C1(C)C (relative stereo) ; what IC50 value has been reported?
Outgoing: > 20 µg/mL

Incoming: Suppose we examine the compound C=C(C)[C@@H]1C[C@@H](CC2(CC=C(C)C)C(=O)C(C(CC(=O)O)c3ccccc3)=C3O[C@H](C)[C@@H](C)C(=O)C3=C2O)C1(C)C (relative stereo) ; what IC50 value has been reported?
Outgoing: > 20 µg/mL
